In this section we review reported inhibition values for a set of compounds.
- EXPERIMENTAL_SYSTEM: Receptor-type tyrosine-protein phosphatase C (Homo sapiens) (UniProt P08575)
- Sequence (P08575 whole entry): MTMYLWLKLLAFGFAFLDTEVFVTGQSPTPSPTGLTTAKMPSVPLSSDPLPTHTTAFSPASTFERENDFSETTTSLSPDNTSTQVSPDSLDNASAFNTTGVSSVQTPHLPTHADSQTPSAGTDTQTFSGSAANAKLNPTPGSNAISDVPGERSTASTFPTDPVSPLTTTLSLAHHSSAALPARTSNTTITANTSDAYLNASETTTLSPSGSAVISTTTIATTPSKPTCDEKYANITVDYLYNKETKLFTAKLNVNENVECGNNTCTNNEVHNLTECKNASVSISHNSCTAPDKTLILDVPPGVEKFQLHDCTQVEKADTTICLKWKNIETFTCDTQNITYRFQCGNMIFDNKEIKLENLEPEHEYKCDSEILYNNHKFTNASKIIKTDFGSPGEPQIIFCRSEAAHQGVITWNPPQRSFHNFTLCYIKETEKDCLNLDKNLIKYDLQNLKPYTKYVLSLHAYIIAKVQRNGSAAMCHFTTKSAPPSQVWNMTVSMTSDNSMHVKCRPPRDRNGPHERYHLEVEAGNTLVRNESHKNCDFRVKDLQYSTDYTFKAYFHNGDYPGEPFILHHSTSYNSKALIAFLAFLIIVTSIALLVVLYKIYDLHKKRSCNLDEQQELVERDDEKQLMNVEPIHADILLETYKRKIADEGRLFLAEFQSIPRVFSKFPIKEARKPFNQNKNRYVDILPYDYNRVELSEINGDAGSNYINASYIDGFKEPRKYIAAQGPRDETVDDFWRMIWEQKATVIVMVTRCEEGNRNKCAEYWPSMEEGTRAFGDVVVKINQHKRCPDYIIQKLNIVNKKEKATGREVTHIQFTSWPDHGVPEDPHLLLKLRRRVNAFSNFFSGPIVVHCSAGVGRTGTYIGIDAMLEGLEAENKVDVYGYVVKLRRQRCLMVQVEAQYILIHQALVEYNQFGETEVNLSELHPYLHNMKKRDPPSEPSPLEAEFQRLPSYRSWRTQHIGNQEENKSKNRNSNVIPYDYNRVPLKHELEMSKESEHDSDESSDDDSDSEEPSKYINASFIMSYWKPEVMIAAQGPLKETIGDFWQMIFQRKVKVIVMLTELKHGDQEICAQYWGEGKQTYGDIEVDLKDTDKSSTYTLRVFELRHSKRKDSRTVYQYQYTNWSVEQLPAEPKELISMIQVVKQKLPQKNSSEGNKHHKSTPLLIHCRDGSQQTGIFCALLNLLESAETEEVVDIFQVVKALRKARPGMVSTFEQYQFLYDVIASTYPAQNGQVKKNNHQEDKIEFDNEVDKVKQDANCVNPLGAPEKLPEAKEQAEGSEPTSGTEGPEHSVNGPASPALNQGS
- ASSAY_SUMMARY: Inhibition of CD45 protein-tyrosine phosphatase of Jurkat cell membrane at 500 uM.
- Type: cell-based
MEASURED_PARAMETER: inhibition (%)

O=P(O)(O)C(O)c1ccncc1 (stereo not given) : 0
O=P(O)(O)C(O)c1ccc2ccccc2c1 (stereo not given) : 59
O=[N+]([O-])c1cccc(CP(=O)(O)O)c1 : 17
O=[N+]([O-])c1ccc(SC2CCCCC2)c(C(O)P(=O)(O)O)c1 (stereo not given) : 99
O=[N+]([O-])c1ccc(O)c(C(O)P(=O)(O)O)c1 (stereo not given) : 75
O=P(O)(O)C(O)c1ccccn1 (stereo not given) : 2
O=P(O)(O)C(O)c1ccnc2ccccc12 (stereo not given) : 58
Cc1cccc(C(O)P(=O)(O)O)c1 (stereo not given) : 27
O=C(c1ccccc1)C(C(=O)c1ccccc1)(c1cccc2ccccc12)P(=O)(O)O : 8
O=[N+]([O-])c1ccc(Cl)c(C(O)P(=O)(O)O)c1 (stereo not given) : 81
O=P(O)(O)C(O)c1cccc(O)c1 (stereo not given) : 0
O=P(O)(O)C(O)c1cccc(Cl)c1 (stereo not given) : 49
O=P(O)(O)C(O)c1cccnc1 (stereo not given) : 13
O=[N+]([O-])c1cc(C(O)P(=O)(O)O)cs1 (stereo not given) : 93
CS(=O)(=O)c1ccc(C(O)P(=O)(O)O)cc1 (stereo not given) : 41
